- Tested on: C. jejuni 11168-O Δtlp3
- Type: cell-based, Campylobacter jejuni
- CONDITION_SUMMARY: repellents
Listed here: items and their measured Increase in bacterial numbers around ligand plug, Δtlp3 compared to wild type.
Numeric answer only, unit log assumed.

>  <COMPOUND>
NCCCC[C@H](N)C(=O)O [Lysine]

>  <VALUE_OBSERVED>
2

$$$$
>  <COMPOUND>
N=C(N)NCCC[C@H](N)C(=O)O [Arginine]

>  <VALUE_OBSERVED>
1

$$$$
>  <COMPOUND>
Cc1ncc(C[n+]2csc(CCO)c2C)c(N)n1 [Thiamine]

>  <VALUE_OBSERVED>
1

$$$$
>  <COMPOUND>
N[C@H]1C(O)O[C@H](CO)[C@@H](O)[C@@H]1O (some centres unmarked) [Glucosamine]

>  <VALUE_OBSERVED>
3

$$$$

Reported Increase in bacterial numbers around ligand plug, Δtlp3 compared to wild type, compound O=C(O)CCC(=O)O [Succinic Acid] : ____ 1

====

Listed here: items and their measured Kd.
- SYSTEM_TESTED: His-Tlp3 (Campylobacter jejuni, UniProt Q0P864)
- Sequence (Q0P864 entry or part of it): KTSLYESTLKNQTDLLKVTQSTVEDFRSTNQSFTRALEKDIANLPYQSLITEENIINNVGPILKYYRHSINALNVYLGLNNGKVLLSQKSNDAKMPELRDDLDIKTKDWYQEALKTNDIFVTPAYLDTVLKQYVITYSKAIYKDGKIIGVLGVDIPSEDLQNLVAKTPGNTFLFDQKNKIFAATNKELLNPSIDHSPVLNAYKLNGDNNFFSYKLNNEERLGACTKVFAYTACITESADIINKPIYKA
- ASSAY: biochemical
- Type: binding
- CONDITION_SUMMARY: Binding Affinity (KD), SPR, 25°C, 1× PBS pH 7.2
- Method: Amino acid and small molecule arrays and plate based binding assays were performed as previously described.. […] SPR experiments were performed using a Biacore T100 biosensor system (GE- healthcare) at 25°C in 1× PBS pH 7.2 at a flow rate of 30 µl/min. […] Amino acids were prepared in 1 × PBS pH 7.2 and serially diluted from 0.0125 to 0.2 mM. […] SPR signals were analyzed using the Biacore Evaluation software to determine KD. […]
Numeric answer only, unit µM assumed.

Would you please look over these solved cases?
>  <COMPOUND>
N[C@H]1C(O)O[C@H](CO)[C@@H](O)[C@@H]1O (stereo partly shown)

>  <Kd (µM)>
7.77

$$$$
>  <COMPOUND>
O=C(O)CCC(=O)O

>  <Kd (µM)>
33.2

$$$$

Reported Kd, compound c1ncc2nc[nH]c2n1 : ____ 38.3
